Biological target: TYK2 (Homo sapiens (Human), UniProt P29597)
Sequence (P29597 871-1187): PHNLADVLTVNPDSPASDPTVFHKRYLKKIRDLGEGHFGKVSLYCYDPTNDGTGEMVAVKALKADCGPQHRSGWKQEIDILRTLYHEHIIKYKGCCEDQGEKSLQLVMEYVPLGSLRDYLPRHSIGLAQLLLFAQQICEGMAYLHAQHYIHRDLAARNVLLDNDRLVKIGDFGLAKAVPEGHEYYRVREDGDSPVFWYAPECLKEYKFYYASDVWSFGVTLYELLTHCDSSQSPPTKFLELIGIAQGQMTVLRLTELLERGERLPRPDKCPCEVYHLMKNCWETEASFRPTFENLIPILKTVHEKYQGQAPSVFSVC
Test: JAK kinase assay (HTRF), TYK2
Conditions: catalytic domain, ATP at Km (13 μM)
So I've got a bunch of compounds here, and I need their EC50 values.
Number only, in nM; omit the unit.

[Q] # return recorded EC50 for input O=C(N[C@H](CO)Cc1ccccc1)C1CCN(c2ncnc3[nH]ccc23)CC12CC2 (stereo partly drawn)
[A] 4160

[Q] Quickly give me recorded EC50 for `Cc1cc([C@H](O)[C@H](C)NC(=O)[C@H]2CCN(c3ncnc4[nH]ccc34)CC23CC3)ccc1F`
[A] 40.6

[Q] Let me know recorded EC50 for `O=C(N[C@@H](CO)c1ccc(F)cc1)[C@H]1CCN(c2ncnc3[nH]ccc23)CC12CC2` , thanks.
[A] 20.5

[Q] Using known records, supply EC50 for `O=C(N[C@H](CO)C(=O)OCC1(CO)CCC1)[C@H]1CCN(c2ncnc3[nH]ccc23)CC12CC2`
[A] 177

[Q] Give EC50 for N#Cc1ccc(C(O)CNC(=O)C2CCN(c3ncnc4[nH]ccc34)CC23CC3)cc1 (stereo not drawn)
[A] 75.4

[Q] In one line, give reported EC50 of the entry COc1ccc(CNC(=O)C2CCN(c3ncnc4[nH]ccc34)CC23CC3)cc1 (stereo not drawn) .
[A] 288

[Q] Name the recorded EC50 of the compound listed here: `O=C(NC[C@H](O)C1CCOCC1)[C@H]1CCN(c2ncnc3[nH]ccc23)CC12CC2`
[A] 10.8

[Q] Provide one value: measured EC50 of O=C(NCC(O)C1CCCCC1)[C@H]1CCN(c2ncnc3[nH]ccc23)CC12CC2 (stereo partly drawn)
[A] 4.6

[Q] Identify the reported EC50 for the following entry. `O=C(OCC1CC(F)(F)C1)[C@H]1CCN(c2ncnc3[nH]ccc23)CC12CC2`
[A] 15.7

[Q] Tell me measured EC50 for O=C(NC[C@@H](O)C1CCCC1)[C@H]1CCN(c2ncnc3[nH]ccc23)CC12CC2 [Example 1] please.
[A] 3.6

[Q] Fill in reported EC50 for this entry: `C[C@H](NC(=O)[C@H]1CCN(c2ncnc3[nH]ccc23)CC12CC2)[C@@H](O)c1ccc(C#N)cc1`
[A] 131

[Q] Give me measured EC50, please, for this compound: C[C@H](NC(=O)C1CCN(c2ncnc3[nH]ccc23)CC12CC2)c1ccc(C#N)cc1 (stereo partly drawn)
[A] 52.1

[Q] Output measured EC50 for this item: `O=C(NC[C@H](O)C1CCC1)[C@H]1CCN(c2ncnc3[nH]ccc23)CC12CC2`
[A] 11.1

[Q] Supply EC50 value. Item: O=C(N[C@@H](CO)[C@H](O)c1ccc(F)cn1)[C@H]1CCN(c2ncnc3[nH]ccc23)CC12CC2 (single isomer, unassigned)
[A] 30.5

[Q] Tell me EC50 reported for O=C(NCc1cccnc1)C1CCN(c2ncnc3[nH]ccc23)CC12CC2 (stereo not drawn)
[A] 1410

[Q] Please report the measured EC50 for `O=C(N[C@H](CO)C(=O)OCC1CCCC1)[C@H]1CCN(c2ncnc3[nH]ccc23)CC12CC2`
[A] 124

[Q] Note down EC50 recorded for `Cc1cc([C@H](O)CNC(=O)[C@H]2CCN(c3ncnc4[nH]ccc34)CC23CC3)ncc1F`
[A] 63.2

[Q] Output measured EC50 for this item: `C[C@@](CO)(NC(=O)[C@H]1CCN(c2ncnc3[nH]ccc23)CC12CC2)c1ccc(C#N)cn1`
[A] 193

[Q] Could you please provide reported EC50 for O=C(NCC(O)c1ccc(F)cn1)[C@H]1CCN(c2ncnc3[nH]ccc23)CC12CC2 (stereo partly drawn) ? Thanks!
[A] 32.1

[Q] Given `CCc1cc(C#N)ccc1[C@@H](C)NC(=O)[C@H]1CCN(c2ncnc3[nH]ccc23)CC12CC2` , respond with its EC50.
[A] 289

[Q] Provide only the value of recorded EC50 for `C[C@H](NC(=O)[C@H]1CCN(c2ncnc3[nH]ccc23)CC12CC2)[C@H](O)c1ccc(C#N)cc1`
[A] 987

[Q] For `N#CCC1(COC(=O)[C@H]2CCN(c3ncnc4[nH]ccc34)CC23CC3)CC1` , write its EC50.
[A] 25

[Q] Name the recorded EC50 of the compound listed here: `C[C@H](NC(=O)[C@H]1CCN(c2ncnc3[nH]ccc23)CC12CC2)[C@@H](O)C1CCCC1`
[A] 6.3

[Q] Tell me its EC50 given `C[C@H](NC(=O)[C@H]1CCN(c2ncnc3[nH]ccc23)CC12CC2)[C@@H](O)C1CCCCC1` as the entry.
[A] 6.2

[Q] Name the recorded EC50 of the item Cc1cc([C@@H](O)CNC(=O)[C@H]2CCN(c3ncnc4[nH]ccc34)CC23CC3)ncc1F (single isomer, unassigned) in your answer.
[A] 188

[Q] Supply recorded EC50 for `O=C(OCC1CC(F)(F)C1)[C@@H]1CCN(c2ncnc3[nH]ccc23)CC12CC2` here.
[A] 1280

[Q] Please give the documented EC50 of `Cc1cc(C#N)ccc1[C@H](CO)NC(=O)[C@H]1CCN(c2ncnc3[nH]ccc23)CC12CC2`
[A] 102
